Provenance of the data: PubChem BioAssay (NCI)

Test: NCI Yeast Anticancer Drug Screen. Data for the sgs1 mgt1 strain (AID 161);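 further: 0% = growth of cultures given vehicle only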
Details: S. cerevisiae sgs1 mgt1 strain, at 50.0 µM (retest, dose inferred, filed as 5.0), stronger effect = higher value
Protocol: Growth inhibition of yeast strains with defined genetic alterations is measured as a screen for potential anti-cancer activity. Selected strains with alterations in DNA damage repair or cell cycle control were exposed to compounds and growth inhibition was measured relative to vehicle treated controls. The strain used in this assay is sgs1 mgt1
About 79,000 compounds went through this panel and 15% of them were active in at least one assay; those are over-represented in the sample as a whole.

molecule: CC(C)=CCC/C(C)=C/COc1ccc(/C=C2/C(=O)N(O)[C@@H](C)C(=O)N2O)cc1
growth inhibition, %: 92
--
molecule: COC1=C(OC)C(=O)C(SCc2ccco2)=CC1=O
growth inhibition, %: 99
--
molecule: NC(=S)N/N=C/c1cn(CCCl)c2ccccc12
growth inhibition, %: 63
--
molecule: CC(=O)NNc1nc(C)c(C(=O)NNC(=O)C(=O)Nc2ccc(Cl)c([N+](=O)[O-])c2)s1
growth inhibition, %: 32
--
molecule: COc1ccc(C2CC(c3c(O)ccc4ccccc34)=NN2)cc1OC (stereo not given)
growth inhibition, %: 97
